Please go through the items and note down their IC50.
# Assayed target: mouse CD38 (Mus musculus, UniProt P56528)
# Sequence (P56528 1-304): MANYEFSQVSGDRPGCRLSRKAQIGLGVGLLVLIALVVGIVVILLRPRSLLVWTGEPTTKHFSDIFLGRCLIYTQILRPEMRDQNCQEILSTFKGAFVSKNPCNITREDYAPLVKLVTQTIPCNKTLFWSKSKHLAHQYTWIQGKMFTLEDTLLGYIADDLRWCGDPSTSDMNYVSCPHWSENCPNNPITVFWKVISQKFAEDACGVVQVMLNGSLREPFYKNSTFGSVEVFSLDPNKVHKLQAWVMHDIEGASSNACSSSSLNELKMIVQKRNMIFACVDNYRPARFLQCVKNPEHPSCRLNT
# Test: mouse recombinant CD38 enzyme assay (hydrolysis of NAD+)
# Assay conditions: read-out: mCD38 BioChem IC50
The reply should contain only the number, in nM.

Entry CO[C@H]1CC[C@H](NC(=O)c2nc(C3CC3)cc(-n3ccnc3)n2)CC1 [Compound 204] has what IC50?
8.8

Entry CO[C@H]1CC[C@H](NC(=O)c2cc(C3CCC3)nc(-c3cncn3C)n2)CC1 [Compound 181] has what IC50?
2

Entry COCCOc1cc(C(=O)Nc2ccc(C(F)F)nc2)nc(-n2ccnc2)c1 [Compound 244] has what IC50?
1

Entry COCCO[C@H]1C[C@H](NC(=O)c2nccc(-c3cncn3C)n2)C1 [Compound 222] has what IC50?
203

Entry Cc1ccc(NC(=O)c2cc(-n3ccnc3)ccn2)cn1 [Compound 2] has what IC50?
1010

Entry Cn1cncc1-c1nc(C(=O)N[C@H]2CC[C@H](C(F)F)CC2)cc(C(F)(F)F)n1 [Compound 152] has what IC50?
1

Entry Cc1cc(C(=O)NC2CC3(C2)CC(F)(F)C3)nc(-c2cncn2C)n1 [Compound 124] has what IC50?
1

Entry O=C(N[C@H]1CC[C@H](CO)CC1)c1ccnc(-c2cncs2)n1 [Compound 140] has what IC50?
117

Entry COCCO[C@H]1CC[C@H](NC(=O)c2nc(-n3ccnc3)ccc2F)CC1 [Compound 43] has what IC50?
32

Entry COCCO[C@H]1CC[C@H](NC(=O)c2cc(C3CCOCC3)nc(-c3cncn3C)n2)C1 [Compound 353] has what IC50?
4.2

Entry Cn1cncc1-c1nc(C(=O)N[C@H]2C[C@H](Oc3ccccc3)C2)cc(C2CCOCC2)n1 [Compound 291] has what IC50?
3.4

Entry Cn1cncc1-c1ccnc(C(=O)N[C@H]2CC[C@H](O)C2)n1 [Compound 305] has what IC50?
62.4

Entry O=C(Nc1ccc(C(F)F)nc1)c1cc(C2CCOCC2)nc(-n2ccnc2)n1 [Compound 195] has what IC50?
9.9
